- Subject Of Test: Replicase polyprotein 1ab (Severe acute respiratory syndrome coronavirus 2)
- Assay Comment: Inhibition of SARS-CoV-2 papain-like protease-mediated de-ISGylation
pIC50: −log10 of the molar value.

Record Smiles: Nc1nc2nc[nH]c2c(=S)[nH]1
pIC50: 7.00

----------
- Subject Of Test: Replicase polyprotein 1ab (Severe acute respiratory syndrome coronavirus 2, UniProt P0DTD1)
- Assay Comment: Inhibition of TAP-tagged SARS-CoV-2 papain-like protease nsp23

Record Smiles: Nc1nc2nc[nH]c2c(=S)[nH]1
Unit Symbol: nM
IC50: 1000

----------
- Subject Of Test: Replicase polyprotein 1ab (Severe acute respiratory syndrome coronavirus 2)
- Assay Comment: Inhibition of C-terminal His-tagged SARS-CoV-2 BetaCoV/Wuhan/WIV04/2019 papain-like protease (1564 to 1876 residues) expressed in Escherichia coli BL21 (DE3) using Dabcyl-FTLRGG/APTKV as substrate preincubated for 1 hr followed by substrate addition measured after 3 hrs by FRET assay
pIC50: −log10 of the molar value.

Record Smiles: C[C@H](c1ccccc1Cl)N(C)Cc1cc(O)ccc1Cl
pIC50: 5.18
